The reported numbers originate from paper PMC8667885.

For each record, write down the corresponding Ki.
// note: answer is a bare numeric in nM

Tested on human CA XII (Homo sapiens, UniProt O43570), the item Cc1cc(=O)oc2cc(OCCCCCNc3nc4cc(-c5ccccc5)ccc4o3)ccc12 [Compound 8i] showed Ki equal to 57.1

Tested on human CA XII (Homo sapiens, UniProt O43570), the item Cc1c(C)c2ccc(OCCCCCCNc3nc4ccccc4o3)cc2oc1=O [Compound 8d] showed Ki equal to 69.8

Tested on human CA XII (Homo sapiens, UniProt O43570), the item Cc1cc(=O)oc2cc(OCCCCCNc3nc4cc(Br)ccc4o3)ccc12 [Compound 8h] showed Ki equal to 80.7

Tested on human CA XII (Homo sapiens, UniProt O43570), the item O=c1cc(-c2ccccc2)c2ccc(OCCCCCCNc3nc4ccccc4o3)cc2o1 [Compound 8f] showed Ki equal to 316

====

# assayTarget: human CA IX (Homo sapiens, UniProt Q16790)
# assayExplanation: stopped-flow CO2 hydrase assay, CA IX
# conditionContext: ratio of Ki CA I / CA IX
For each record, write down the corresponding Selectivity ratio I/IX.

Lab note: measured Selectivity ratio I/IX of O=c1cc(-c2ccccc2)c2ccc(OCCCCCCNc3nc4ccccc4o3)cc2o1 was >36.9

Lab note: measured Selectivity ratio I/IX of Cc1cc(=O)oc2cc(OCCCCCNc3nc4cc(Br)ccc4o3)ccc12 was >13.2

Lab note: measured Selectivity ratio I/IX of Cc1cc(=O)oc2cc(OCCCCCNc3nc4cc(-c5ccccc5)ccc4o3)ccc12 was >301.2

Lab note: measured Selectivity ratio I/IX of Cc1cc(=O)oc2cc(OCCCCCNc3nc4cc(S(N)(=O)=O)ccc4o3)ccc12 was 8.9

Lab note: measured Selectivity ratio I/IX of Cc1cc(=O)oc2cc(OCCCCCCNc3nc4ccccc4o3)ccc12 was >121.5

Lab note: measured Selectivity ratio I/IX of Cc1c(Cl)c(=O)oc2cc(OCCCCCCNc3nc4ccccc4o3)ccc12 was >134.6

Lab note: measured Selectivity ratio I/IX of Cc1cc(=O)oc2cc(OCCCNc3nc4ccccc4o3)ccc12 was >134.8

Lab note: measured Selectivity ratio I/IX of Cc1ccc2oc(NCCCCCOc3ccc4c(C)cc(=O)oc4c3)nc2c1 was >24.0

Lab note: measured Selectivity ratio I/IX of Cc1cc(=O)oc2cc(OCCCCCNc3nc4ccccc4o3)ccc12 was >141.4

Lab note: measured Selectivity ratio I/IX of Cc1c(C)c2ccc(OCCCCCCNc3nc4ccccc4o3)cc2oc1=O was >155.0

====

# assayTarget: human CA IX (Homo sapiens, UniProt Q16790)
# assayExplanation: stopped-flow CO2 hydrase assay, CA IX
# conditionContext: ratio of Ki CA II / CA IX
For each record, write down the corresponding Selectivity ratio II/IX.

Tested on human CA IX (Homo sapiens, UniProt Q16790), the item Cc1cc(=O)oc2cc(OCCCCCNc3nc4cc(-c5ccccc5)ccc4o3)ccc12 [Compound 8i] showed Selectivity ratio II/IX equal to >301.2

Tested on human CA IX (Homo sapiens, UniProt Q16790), the item Cc1cc(=O)oc2cc(OCCCCCNc3nc4cc(S(N)(=O)=O)ccc4o3)ccc12 [Compound 8j] showed Selectivity ratio II/IX equal to 5.7

Tested on human CA IX (Homo sapiens, UniProt Q16790), the item Cc1cc(=O)oc2cc(OCCCCCNc3nc4cc(Br)ccc4o3)ccc12 [Compound 8h] showed Selectivity ratio II/IX equal to >13.2

Tested on human CA IX (Homo sapiens, UniProt Q16790), the item Cc1c(Cl)c(=O)oc2cc(OCCCCCCNc3nc4ccccc4o3)ccc12 [Compound 8e] showed Selectivity ratio II/IX equal to >134.6

Tested on human CA IX (Homo sapiens, UniProt Q16790), the item Cc1cc(=O)oc2cc(OCCCNc3nc4ccccc4o3)ccc12 [Compound 8a] showed Selectivity ratio II/IX equal to >134.8

Tested on human CA IX (Homo sapiens, UniProt Q16790), the item Cc1cc(=O)oc2cc(OCCCCCCNc3nc4ccccc4o3)ccc12 [Compound 8c] showed Selectivity ratio II/IX equal to >121.5

Tested on human CA IX (Homo sapiens, UniProt Q16790), the item Cc1cc(=O)oc2cc(OCCCCCNc3nc4ccccc4o3)ccc12 [Compound 8b] showed Selectivity ratio II/IX equal to >141.4

Tested on human CA IX (Homo sapiens, UniProt Q16790), the item Cc1c(C)c2ccc(OCCCCCCNc3nc4ccccc4o3)cc2oc1=O [Compound 8d] showed Selectivity ratio II/IX equal to >155.0

Tested on human CA IX (Homo sapiens, UniProt Q16790), the item Cc1ccc2oc(NCCCCCOc3ccc4c(C)cc(=O)oc4c3)nc2c1 [Compound 8g] showed Selectivity ratio II/IX equal to >24.0

Tested on human CA IX (Homo sapiens, UniProt Q16790), the item O=c1cc(-c2ccccc2)c2ccc(OCCCCCCNc3nc4ccccc4o3)cc2o1 [Compound 8f] showed Selectivity ratio II/IX equal to >36.9
